- Tested system: Human immunodeficiency virus type 1 reverse transcriptase (Human immunodeficiency virus 1, UniProt Q72547)
- Protocol description: Inhibition of HIV-1 reverse transcriptase.
Field 'label' (enum: satisfied / not satisfied). Set to satisfied when IC50 is strictly under 1000 nM; else not satisfied.

O=C1Nc2ccc(Cl)cc2[C@@](C#CC2CC2)(C(F)(F)F)[C@H]1OCC1CC1 : not satisfied
O=C1Nc2ccc(Cl)cc2[C@@](C#CC2CC2)(C(F)(F)F)[C@H]1OCc1ccccn1 : not satisfied
CCCO[C@H]1C(=O)Nc2ccc(Cl)cc2[C@@]1(C#CC1CC1)C(F)(F)F : not satisfied

Ask | hey, is IC50 for CC(C)=CCO[C@H]1C(=O)Nc2ccc(Cl)cc2[C@@]1(C#CC1CC1)C(F)(F)F lower than 1000 nM or not?
Reply | not satisfied

Ask | Given O=C1Nc2ccc(Cl)cc2[C@@](C#CC2CC2)(C(F)(F)F)[C@H]1OCc1cccnc1 , is recorded IC50 strictly lower than 1000 nM?
Reply | satisfied

Ask | Problem: For the compound O=C1Nc2ccc(Cl)cc2[C@@](C#CC2CC2)(C(F)(F)F)[C@H]1O , is IC50 under 1000 nM?
Reply | not satisfied

Ask | Does the reported IC50 of Nc1ccc(CO[C@H]2C(=O)Nc3ccc(Cl)cc3[C@@]2(C#CC2CC2)C(F)(F)F)cc1F stay below 1000 nM?
Reply | satisfied

Ask | Please let me know if O=C1Nc2ccc(Cl)cc2[C@@](C#CC2CC2)(C(F)(F)F)[C@H]1OCc1ccncc1 shows IC50 below 1000 nM.
Reply | satisfied

Ask | Is it true that IC50 reported for CC(=O)N[C@H]1C(=O)Nc2ccc(Cl)cc2[C@@]1(C#CC1CC1)C(F)(F)F is less than 1000 nM?
Reply | not satisfied

Ask | Item O=C1Nc2ccc(Cl)cc2[C@@](C#CC2CC2)(C(F)(F)F)[C@H]1NCc1ccccc1 : IC50 beneath 1000 nM, strictly?
Reply | not satisfied

Ask | Is the reported IC50 for O=C1Nc2ccc(Cl)cc2[C@@](C#CC2CC2)(C(F)(F)F)[C@H]1OCc1ccc(F)cc1 strictly below 1000 nM?
Reply | satisfied

Ask | # TODO verify IC50 < 1000 nM strictly for this compound: O=C1C[C@](C#CC2CC2)(C(F)(F)F)c2cc(Cl)ccc2N1
Reply | satisfied

Ask | For COC(=O)N[C@H]1C(=O)Nc2ccc(Cl)cc2[C@@]1(C#CC1CC1)C(F)(F)F , is the recorded IC50 below the cut-off of 1000 nM?
Reply | not satisfied

Ask | Please check: IC50 for Nc1cccc(CO[C@H]2C(=O)Nc3ccc(Cl)cc3[C@@]2(C#CC2CC2)C(F)(F)F)c1 , strictly under 1000 nM or not?
Reply | not satisfied

Ask | Regarding Nc1ccc(CO[C@H]2C(=O)Nc3ccc(Cl)cc3[C@@]2(C#CC2CC2)C(F)(F)F)cc1 , kindly confirm whether its IC50 is beneath 1000 nM.
Reply | satisfied

Ask | Is the reported IC50 for O=C1Nc2ccc(Cl)cc2[C@@](C#CC2CC2)(C(F)(F)F)[C@H]1OCc1ccccc1 strictly below 1000 nM?
Reply | satisfied

Ask | Consider the compound O=C1Nc2ccc(Cl)cc2[C@@](C#CC2CC2)(C(F)(F)F)[C@H]1OCc1ccccc1F . Is its IC50 strictly less than 1000 nM?
Reply | not satisfied

Ask | Is IC50 of O=C1Nc2ccc(Cl)cc2[C@@](C#CC2CC2)(C(F)(F)F)[C@H]1OCc1cccc(F)c1 strictly below 1000 nM?
Reply | not satisfied
